Origin of the recorded values: ChEMBL document CHEMBL5442741

Recorded Activity values for a group of compounds are listed next.
Target: SRSF protein kinase 1 (Homo sapiens) (UniProt Q96SB4)
Sequence (Q96SB4 whole entry): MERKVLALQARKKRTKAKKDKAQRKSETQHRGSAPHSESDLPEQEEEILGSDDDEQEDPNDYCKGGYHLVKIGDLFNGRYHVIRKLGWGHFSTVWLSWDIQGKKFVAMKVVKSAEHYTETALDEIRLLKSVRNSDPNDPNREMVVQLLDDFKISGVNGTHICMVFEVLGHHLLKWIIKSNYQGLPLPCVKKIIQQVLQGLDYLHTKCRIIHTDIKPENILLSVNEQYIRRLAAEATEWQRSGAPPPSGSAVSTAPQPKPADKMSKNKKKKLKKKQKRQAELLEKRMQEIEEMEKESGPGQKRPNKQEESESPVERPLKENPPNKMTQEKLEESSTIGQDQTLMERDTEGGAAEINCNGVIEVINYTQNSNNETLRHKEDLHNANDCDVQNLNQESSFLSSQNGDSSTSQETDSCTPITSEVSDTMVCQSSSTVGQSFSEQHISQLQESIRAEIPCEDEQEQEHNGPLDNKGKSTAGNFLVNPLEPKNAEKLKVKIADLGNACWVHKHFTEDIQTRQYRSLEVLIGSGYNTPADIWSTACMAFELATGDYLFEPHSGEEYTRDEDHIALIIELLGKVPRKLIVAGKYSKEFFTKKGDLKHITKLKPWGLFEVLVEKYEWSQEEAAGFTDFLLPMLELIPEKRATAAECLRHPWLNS
Assay: Enzymatic radiometric [Km ATP] KinaseProfiler LeadHunter assay, kinase: SRPK1, catalogue number: 14-564KP The assay has been performed by Eurofins Discovery.
Settings: ATP concentration 10.0 uM, Test compound concentration 10.0 uM

>  <given.smiles>
CC(C)[C@@H](Nc1ncnc2[nH]c(C(=O)N[C@@H]3CCN(C)C3)cc12)c1ccc2c(c1)S(=O)(=O)CCC2

>  <Activity, %>
108

$$$$
>  <given.smiles>
CC(C)[C@H](Nc1ncnc2[nH]ccc12)c1ccc2c(c1)S(=O)(=O)CCC2

>  <Activity, %>
100

$$$$
>  <given.smiles>
Cc1nn(C)cc1-c1cc2c(N[C@H](c3ccc4c(c3)S(=O)(=O)CCC4)C(C)C)ncnc2[nH]1

>  <Activity, %>
104

$$$$
>  <given.smiles>
CC(C)[C@@H](Nc1ncnc2[nH]ccc12)c1ccc2c(c1)S(=O)(=O)CCC2

>  <Activity, %>
105

$$$$
>  <given.smiles>
CNCc1cc(-c2cc3c(N[C@@H](c4ccc5c(c4)S(=O)(=O)CCC5)C(C)C)ncnc3[nH]2)co1

>  <Activity, %>
101

$$$$
>  <given.smiles>
C[C@H](C(=O)O)[C@@H](NC(=O)c1ncnc2[nH]ccc12)c1ccc(Br)cc1

>  <Activity, %>
97

$$$$
